Documented self-cleavage across a set of variants
B1: CPEB3 Ribozyme (parent)
chain: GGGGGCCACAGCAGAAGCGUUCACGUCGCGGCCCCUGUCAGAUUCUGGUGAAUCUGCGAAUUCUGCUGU

# Variants of: B1
# Measurement protocol: self-cleavage, relative activity (ratio to wild type); higher = more cleavage; co-transcriptional
Quantity name: self-cleavage

# Variant, Reported result
data = [
    ("G25C C35G", 0.124),
    ("C22A A59G", 0.232),
    ("G58A C63A", 0.748),
    ("G2C C34G", 0.0583),
    ("G5A G17C", 0.0889),
    ("G37U C39G", 0.214),
    ("G58U", 0.994),
    ("C18A U46C", 0.228),
    ("U38G G65C", 0.161),
    ("G2C G19A", 0.0455),
    ("G47U G48A", 1.03),
]
